Below, each entry is listed with its recorded melting point.

{"molecule": "O=C(c1ccc(F)cc1)c1cnn2c(-c3ccncc3)ccnc12", "melting point": "214 to 216 °C"}
{"molecule": "C#CC1CCN(C(=O)c2ccccc2)CC1", "melting point": "101 to 103 °C"}
{"molecule": "CC(=O)c1cccc(NC(=S)N(C)N)c1", "melting point": "125 to 127 °C"}
{"molecule": "CCOC(=O)c1c(O)c2ccccc2c2nc3ccccc3nc12", "melting point": "126 to 127 °C"}
{"molecule": "COc1ccc(Cn2c(=O)[nH]c3ccc(Cl)cc3c2=O)cc1", "melting point": "252 to 253 °C"}
{"molecule": "CCCN[C@H]1CC[C@H](Oc2ccc3[nH]ncc3c2SC)CC1", "melting point": "168 to 169 °C"}
{"molecule": "CC1(C)CC(=O)C2=C(C1)NC1=C(C(=O)CC(C)(C)C1)C2c1ccc(Cl)c(Sc2ccccc2)c1", "melting point": "202 to 204 °C"}
{"molecule": "CNc1nc(C(C)c2ccc(-c3ccc(F)cc3)c(F)c2)c(C(=O)O)s1 (centres undefined)", "melting point": "195 to 196 °C"}
{"molecule": "Cc1ccc(NC(=O)Oc2ccc3c(c2)N(Cc2ccccc2)CCC3)cc1", "melting point": "98 °C"}

----------
Below, each entry is listed with its recorded melting point.
measurementName: melting point

{"molecule": "O=C(O)C1=CC2=C(C(=O)C1)N1C=CC=CC1=CS2", "measurementName": "melting point", "endpointValue": "222 °C"}
{"molecule": "Clc1ccc(-c2cc(-c3ccccc3)c(-c3ccccc3)s2)cc1", "measurementName": "melting point", "endpointValue": "115 to 117 °C"}
{"molecule": "O=[N+]([O-])c1ccc2ccccc2c1NCC12CCCN1CCC2", "measurementName": "melting point", "endpointValue": "88 to 89 °C"}
{"molecule": "CC(C)(C)c1cc(SCCOCC(=O)O)cc(C(C)(C)C)c1O", "measurementName": "melting point", "endpointValue": "86 °C"}
{"molecule": "COc1ccc2nc(CSc3cc(C)ccn3)[nH]c2c1", "measurementName": "melting point", "endpointValue": "138 to 140 °C"}
{"molecule": "COc1ccc(N(CCCC(=O)O)C(=O)c2ccc(Cl)cc2)cc1-c1ccccc1", "measurementName": "melting point", "endpointValue": "114 to 116 °C"}
{"molecule": "Cc1ncc(-c2cccc(Nc3ncnc4c3CCOc3ccccc3-4)c2)n1C", "measurementName": "melting point", "endpointValue": "235 to 237 °C"}
{"molecule": "CSC(=NCC(C)C)Nc1cc(Cl)cc(Cl)c1", "measurementName": "melting point", "endpointValue": "150 °C"}
{"molecule": "CC(C)n1nc(-c2c(-c3ccccc3)nn3ccc(N4CCNCC4)cc23)ccc1=O", "measurementName": "melting point", "endpointValue": "203 to 204 °C"}
{"molecule": "CC(C)(Sc1ccc(-n2cncn2)nn1)C(O)(Cn1cncn1)c1ccc(F)cc1F (single isomer, unassigned; (+))", "measurementName": "melting point", "endpointValue": "226 to 227 °C"}
{"molecule": "CCOC(=O)c1cn(C2CC2)c2c(Cl)c(F)c(Cl)cc2c1=O", "measurementName": "melting point", "endpointValue": "215 to 217 °C"}
{"molecule": "N=C(N)NC(=O)c1cn([C@H](CO)CCc2ccccc2)cn1", "measurementName": "melting point", "endpointValue": "111 to 113 °C"}
{"molecule": "CC(=O)Nc1ccc(C(=O)c2cccnc2)cc1", "measurementName": "melting point", "endpointValue": "215 °C"}
{"molecule": "O=C(C=NO)c1cccc(Cl)c1Cl", "measurementName": "melting point", "endpointValue": "109 °C"}
{"molecule": "CC(C)Oc1cc(-n2c(Cl)nc(C(F)(F)C(F)(F)F)cc2=O)c(F)cc1Cl", "measurementName": "melting point", "endpointValue": "55 to 58 °C"}
{"molecule": "CCOCC1COc2cc3c(O)c(C#N)cnc3cc2O1 (centres undefined)", "measurementName": "melting point", "endpointValue": "248 to 254 °C"}
{"molecule": "CCCCOC(=O)CNC(=O)c1nc2ccc(OC)cc2cc1OCc1ccccc1", "measurementName": "melting point", "endpointValue": "90 to 92 °C"}
{"molecule": "COc1cccc(OC)c1C=CC(=O)c1ccccc1", "measurementName": "melting point", "endpointValue": "54.9 to 55.8 °C"}
{"molecule": "Cc1cc2c(-c3ccccc3C)c(C#N)n(C)c(=O)c2cc1C", "measurementName": "melting point", "endpointValue": "217 to 218 °C"}
{"molecule": "CC1(C)SC(=S)N(c2ccccn2)C1O (centres undefined)", "measurementName": "melting point", "endpointValue": "80 °C"}
{"molecule": "CCC(CC)Nc1cc(C)nc(Sc2c(C)cc(C)cc2C)c1C", "measurementName": "melting point", "endpointValue": "108 to 110 °C"}
{"molecule": "CCCCCCOCCCCCCCCCCCSCCCO", "measurementName": "melting point", "endpointValue": "27 to 29 °C"}
{"molecule": "FC(F)(F)C1(C(F)(F)F)c2ccccc2Oc2ccccc21", "measurementName": "melting point", "endpointValue": "74 to 75 °C"}
{"molecule": "O=C(Nc1n[nH]c(=S)s1)NC(Cc1ccccc1)C(=O)NCc1ccccc1 (centres undefined)", "measurementName": "melting point", "endpointValue": "167 to 170 °C"}
{"molecule": "O=C1NC(=O)c2c(Sc3ccc([N+](=O)[O-])cc3)c(Sc3ccc([N+](=O)[O-])cc3)c(Sc3ccc([N+](=O)[O-])cc3)c(Sc3ccc([N+](=O)[O-])cc3)c21", "measurementName": "melting point", "endpointValue": "297 to 301 °C"}
{"molecule": "N#CCSc1ncc2ccccn12", "measurementName": "melting point", "endpointValue": "120 to 122 °C"}
{"molecule": "O=C(O)c1c(C(F)(F)F)nn(-c2c(Cl)cc(C(F)(F)F)cc2Cl)c1C(F)(F)F", "measurementName": "melting point", "endpointValue": "185 to 190 °C"}
{"molecule": "CCC1(CC)NC(=O)Oc2ccc(-c3cccc(Cl)c3)cc21", "measurementName": "melting point", "endpointValue": "150 to 151 °C"}
{"molecule": "CCCCCCCCCCCCCCCC(=O)CC(=O)OCC", "measurementName": "melting point", "endpointValue": "37 to 38 °C"}

----------
{"compound": "O=C1NCCN(Cc2ccc(OCc3ccccc3)cc2)C1c1ccccc1 (centres undefined)", "melting point": "207 to 211 °C"}
{"compound": "COc1cc([N+](=O)[O-])ccc1COP(N)(=O)N(CCCl)CCCl (centres undefined)", "melting point": "102 to 104 °C"}
{"compound": "O=C(c1ccccc1)N1CC(c2ccccc2)c2ccccc21 (centres undefined)", "melting point": "127 to 129 °C"}
{"compound": "NC(=O)c1cc(NCc2ccccc2Cl)c([N+](=O)[O-])cc1[N+](=O)[O-]", "melting point": "158 to 161 °C"}
{"compound": "O=C(CC12CC3CC(CC(C3)C1)C2)Nc1ccc2cn[nH]c2c1", "melting point": "245 °C"}
{"compound": "CCOC(=O)C1=C(C)NC(C)=C(C(=O)OCC)C1c1ccccc1Br", "melting point": "144 to 145 °C"}
{"compound": "CC(=O)Nc1ccc(/C=C/C(=O)NCC(=O)N(C)c2ccc(Cl)c(CBr)c2Cl)cn1", "melting point": "222 to 223 °C"}
{"compound": "CC(=O)N1CCC2(CC1)C(=O)N(CC(=O)Nc1c(C(C)C)cccc1C(C)C)C(=O)N2c1ccc(C)cc1", "melting point": "136 to 138 °C"}
{"compound": "CSc1cc(C(=O)O)ccc1C", "melting point": "175 °C"}
{"compound": "CCOC(=O)CCCCCCc1ccc2ccccc2c1O", "melting point": "41 to 42 °C"}
{"compound": "Clc1ccc2[nH]c(Cc3ccccc3)c(C3=NCCN3)c2c1", "melting point": "299 to 300 °C"}
{"compound": "O=C1CCc2ccc(Oc3ccc(CN4CCN(c5cccc(Cl)c5Cl)CC4)cc3)cc2N1", "melting point": "185 to 186 °C"}
{"compound": "O=C(CC1CCCC1)c1ccc[nH]1", "melting point": "49 to 51 °C"}
{"compound": "Cc1ccccc1OCC(=O)Nc1ccc(C(=O)N2CCCCc3ccccc32)cc1", "melting point": "172 to 175 °C"}
{"compound": "COC(=O)C1C(=O)Nc2ccc(C(F)(F)F)cc2CC1c1ccc(OC)cc1 (centres undefined)", "melting point": "161 to 163 °C"}
{"compound": "Oc1ccccc1C=NC1CCOc2ccccc21 (centres undefined)", "melting point": "123 to 126 °C"}
{"compound": "CCNC(=O)c1ccc(-c2ccc3nnn(C(C)(C)c4ccc5ncccc5c4)c3n2)cc1F", "melting point": "132 to 135 °C"}
{"compound": "NCCCCCCCCOc1cccc2ccccc12", "melting point": "90.5 to 92 °C"}
{"compound": "CCC(=O)N(CCCc1ccccc1)C1CCc2c(cccc2NC(C)=O)C1 (centres undefined)", "melting point": "148 to 150 °C"}
